B1: HDV Ribozyme (parent)
chain: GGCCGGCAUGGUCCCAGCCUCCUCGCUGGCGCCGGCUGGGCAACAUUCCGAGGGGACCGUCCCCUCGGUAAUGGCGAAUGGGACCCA

- Variants of: B1
- assay_text: self-cleavage, relative activity (ratio to wild type); higher = more cleavage; co-transcriptional
Label scheme, based on self-cleavage: Low (below 0.1), Mid (0.1 to below 0.6), High (0.6 or more)

| variant_designation | group_label |
| --- | --- |
| U37G A77U | Mid |
| A43C U65C | Mid |
| G29C G68A | Mid |
| C18A C61A | Low |
| A51C A83C | Mid |
| U23A C57A | High |
| C19U G29U | Mid |
| G35C U47G | Low |
| C15G C19G | Low |
| G68U A77G | Mid |
| A56G C61A | High |
| A43G G68U | Mid |
| U23A G25A | Mid |
| C41U C85G | High |
| G31C U37G | Mid |
| G10C G25U | Low |
| U47A G68A | High |
| G2C C4A | Low |
| C62A C86U | High |
| C4A C18U | Mid |
| C4G C61A | Mid |
| C3A G52A | High |
| G6C A70G | Mid |
| G1U G28U | Mid |
| A8G G80C | Mid |
| G34U C63G | Low |
| A71C G73A | Mid |
| G38C G73C | Mid |
| A16G A56G | High |
| U69G G82C | Mid |
| U27C G76C | High |
| A42U A56C | High |
| U46G C84A | Mid |
| G28A U72G | Mid |
| G6C G82A | Low |
| G34C G59A | Mid |
| C18A C75G | Mid |
| U20A G76C | Low |
| G5C C32U | Low |
| G53C G68A | Mid |
| C57A G67U | High |
| G6A C84U | High |
| G28A G34C | Low |
| G5U C36A | Mid |
